test target: T1, CD134 expressed on the cell surface of HT1080_OX40 cells (human, UniProt P43489 29-277); also: test concentration or dose not given here
T1 sequence (looked up): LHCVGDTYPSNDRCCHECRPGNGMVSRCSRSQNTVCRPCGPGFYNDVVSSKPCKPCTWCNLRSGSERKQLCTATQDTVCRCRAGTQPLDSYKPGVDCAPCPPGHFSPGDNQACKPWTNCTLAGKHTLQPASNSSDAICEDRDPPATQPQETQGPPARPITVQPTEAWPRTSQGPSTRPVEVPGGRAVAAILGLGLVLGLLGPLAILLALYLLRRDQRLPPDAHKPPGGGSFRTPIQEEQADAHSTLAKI
test details: cell-based or functional assay
measured property: Functional assay Cross-linked by F(ab′)2 fragment IL-8 (abs. corr.)
Give just the numeric value; abs. corr. need not be written.

Request: Using the record for P018.S.11.A.D04 (antibody, V domains shown, V regions on human Ig constant parts; also called AB134_31) VH: QSVEESGGRLVTPGTPLTLTCTVSGFSLNSYDMSWVRQAPGKGLEWIGFISASGSIYFASWAKGRFTISKTSTTVDLKITSPTTEDTATYFCASDSYGWAYVYYFNLWGPGTLVTVSS VL: AVVLTQTPASVSPAVGGTVTINCRASEDIGSYLGWYQQKPGQPPKLLMHDASDLASGVPSRFSGSGSGTEFTLTISGVQSDDAATYYCQSAWYSSNTDKMAFGGGTEVVVK , report its Functional assay Cross-linked by F(ab′)2 fragment IL-8.
Result: 2.04

Request: Form field: reported Functional assay Cross-linked by F(ab′)2 fragment IL-8 of P018.S.11.A.G02 (antibody, V domains shown, V regions on human Ig constant parts; also called AB134_42) VH: QSVEESGGRLVTPGTPLTLTCTVSGFSLSGYDMSWVRQAPGKGLEWIGYIYGGNTYYANWAKGRFTISKTSTTVDLKMTSPTTEDTATYFCTRVGAGYSGVWAYFNLWGPGTLVTVSS VL: AQVLTQTPSSVSAAVGGTVTINCQSSQSVDSDNYLAWYQQKPGQPPKLLIYDTSKLASGVPSRFTGSGSGTQFTLTISGVQSDDAATYYCQGTYYNAGWYFAFGGGTEVVVK
Result: 2.06

Request: Consider the binder P018.S.12.A.E04 (antibody, V domains shown, V regions on human Ig constant parts; also called AB134_75) VH: QSVEESGGRLVTPGTPLTLTCTVSGFSLNSYDMSWVRQAPGKGLEWIGFISASGSIYFANWAKGRFTISKTSTTVDLKITSPTTEDTATYFCASDSYGWAYVYYFNLWGPGTLVTVSS VL: AVVLTQTPASVSAAVGGTVTINCRASEDVGSYLGWYQQRAGQPPKLLMHDASDLASGVPSRFSGSGSGTEFTLTISGVQSDDAATYYCQSAWLGTNTDKMAFGGGTEVVVK and give its measured Functional assay Cross-linked by F(ab′)2 fragment IL-8.
Result: 2.23

Request: If you can, please state the reported Functional assay Cross-linked by F(ab′)2 fragment IL-8 value of P018.S.12.A.D05 (antibody, V domains shown, V regions on human Ig constant parts; also called AB134_70) VH: QEQLKESGGGVVTPGGTLTLTCTASAFSLNHYNIQWVRQAPGKGLEWIGWILTDGTEYYANWAKGRFTISKTSTTVDLKIASPTTEDTATYFCAREGDWGVDSLWGPGTLVTVSS VL: ALVMTQTPSPVSAAVGGTVTISCQSSQSVDNNDFLSWYQQKPGQPPKLLIYLASKLASGVPSRFSGSGSGTQFTLTISGVQSDDAATYYCKGLYFDSGWYAAFGGGTEVVVE .
Result: 2.15

Request: What value of Functional assay Cross-linked by F(ab′)2 fragment IL-8 has been reported for the following binder? P018.S.12.A.A03 (antibody, V domains shown, V regions on human Ig constant parts; also called AB134_52) VH: LEQSAGGAEGGLVKPGGSLELCCKASGFSLNNNYWICWVRQAPGKGLEWIGCIYVGVVSLTYSASWVNGRFTLSKDIDQSTGCLQLNSLTAADTAMYYCARSLYSGYAGYGDGYYGMDLWGPGTLVTVSS VL: GVVMTQTPASVSDPVGGTVTIKCQASQSIGSDLAWYQQKPGQPPKLLIYAASNLASGVSSRFSGIRSGTEFTLTISDLESADAATYYCQCTDYVDSHDTFGGGTEVVVK
Result: 1.95
